Measured values drawn from the kinase profiling compilation of Christmann-Franck et al. (2016) for this set.

Hi there, I'd appreciate the recorded kinase still bound, per cent of control for every entry that follows.
Target: UniProt:Q86Y07
Sequence (Q86Y07 whole entry, looked up): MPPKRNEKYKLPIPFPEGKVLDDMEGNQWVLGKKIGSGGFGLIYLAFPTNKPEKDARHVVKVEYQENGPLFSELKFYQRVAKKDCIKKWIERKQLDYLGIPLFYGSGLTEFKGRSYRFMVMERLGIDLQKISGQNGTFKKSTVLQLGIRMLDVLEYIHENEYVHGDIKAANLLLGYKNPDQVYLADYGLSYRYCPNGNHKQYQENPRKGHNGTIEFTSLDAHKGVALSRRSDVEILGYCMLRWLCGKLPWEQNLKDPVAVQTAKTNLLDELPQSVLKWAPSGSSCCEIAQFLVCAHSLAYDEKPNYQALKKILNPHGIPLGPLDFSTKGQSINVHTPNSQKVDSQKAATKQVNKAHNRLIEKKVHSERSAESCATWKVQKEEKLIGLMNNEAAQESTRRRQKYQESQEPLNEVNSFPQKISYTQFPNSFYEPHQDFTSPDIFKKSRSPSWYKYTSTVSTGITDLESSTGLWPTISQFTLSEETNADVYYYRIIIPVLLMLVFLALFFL
Assay: KINOMEscan competition binding
Settings: compound 10.0 µM
The answer is to be given in %; state only the numeric part.

[in] kinase still bound, per cent of control of COc1ccc(N(C(=O)Oc2c(C)cccc2C)c2ccnc(Nc3ccc(N4CCN(C)CC4)cc3)n2)c(OC)c1 on UniProt:Q86Y07?
[out] 100

[in] Input COc1cc2ncnc(-n3nc(-c4ccccn4)nc3N)c2cc1OC
[out] 9.8

[in] Query NC(=O)Nc1cc(-c2cccc(F)c2)sc1C(=O)N[C@@H]1CCCNC1 next
[out] 92

[in] Consider next the compound N#CCNC(=O)c1ccc(-c2ccnc(Nc3ccc(N4CCOCC4)cc3)n2)cc1 in the same way.
[out] 94

[in] Next compound: C=CC(=O)Nc1cc(-n2c(=O)ccc3cnc4ccc(-c5cn[nH]c5)cc4c32)ccc1C
[out] 88

[in] COCC(=O)NC/C=C/c1ccc2ncnc(Nc3ccc(Oc4ccc(C)nc4)c(C)c3)c2c1 , same question.
[out] 100

[in] Also check O=C(Nc1cccc(Nc2ncc(Br)c(NCCc3cnc[nH]3)n2)c1)N1CCCC1
[out] 12

[in] Next compound up: CNC(=O)c1cc(Oc2ccc(NC(=O)Nc3ccc(Cl)c(C(F)(F)F)c3)cc2)ccn1
[out] 100

[in] Similarly, COc1cc(C(=O)N2CCC(N3CCN(C)CC3)CC2)ccc1Nc1ncc2c(n1)N(C)c1ccccc1C(=O)N2C ?
[out] 99
